System: UACC-257
Assay: NCI tumour cell line growth inhibition, 48 h
Activity calls are given as the source filed them. No stated cut-off is given here; in the data, active = GI50 up to about 1.1 µM and inactive = higher.
Permitted responses: True = active, False = inactive

{"columns": ["COMPOUND", "CATEGORY LABEL"],
 "data": [
  ["C=C1CC(CCCl)(c2ccccc2)OC1=O (configuration not stated)", "False"]
]}

Problem: Could you please tell me the result logged for Cc1ccc(S(=O)(=O)OC(C=O)C(O)C(O)COC(c2ccccc2)(c2ccccc2)c2ccccc2)cc1 (configuration not stated) in this assay?
Result: False

Problem: Param item: CC(C)(C)[Si](C)(C)OCC1OC(n2cnc3c(N)ncnc32)C(O)C1O (configuration not stated)
Result: False

---

Test system: HCC 2998
Test: NCI tumour cell line growth inhibition, 48 h
The source made the active and inactive calls. No stated cut-off is given here; in the data, active = GI50 up to about 1.1 µM and inactive = higher.
Permitted responses: active, inactive

{"columns": ["MOLECULE", "CATEGORY LABEL"],
 "data": [
  ["Cc1nn(-c2ccccc2)c(-c2ccccc2[N+](=O)[O-])c1CC#N", "inactive"],
  ["CC(=O)NNC1=NN(C(C)=O)C2(S1)C(=O)Nc1ccccc12 (configuration not stated)", "inactive"],
  ["CC1OC(OCC2COC(O)(Oc3c(-c4ccc(O)c(O)c4)oc4cc(O)cc(O)c4c3=O)C(O)C2O)C(O)C(O)C1O (configuration not stated)", "inactive"],
  ["c1ccc(CN2CCc3[nH]c4ccccc4c3C2)cc1", "inactive"]
]}

Problem: Could you please tell me the result logged for C=C1C(=O)O[C@@H]2[C@H]1CC[C@H](C)[C@]1(O)CCC(=O)[C@@]21C in this assay?
Result: inactive

Problem: Param item: CCCCCCCCCCCCc1ccsc1-c1ccc(-c2ccc(-c3sc(-c4cc(CCCCCCCCCCCC)c(-c5ccc(-c6ccc(-c7sccc7CCCCCCCCCCCC)s6)s5)s4)cc3CCCCCCCCCCCC)s2)s1
Result: inactive

Problem: Param item: COc1cccc(NC(=O)c2c(SC)c(C#N)c(=O)n(N)c2N)c1
Result: inactive

Problem: Param item: COC(=O)C(/C(=N/NC(N)=O)C(=O)Nc1c(C)cccc1C(C)(C)C)c1nc2ccc(Cl)cc2nc1O (configuration not stated)
Result: inactive

Problem: Param item: CC1=C(C2=C(C)C(=O)C(=O)c3cc(C)ccc32)c2ccc(C)cc2C(=O)C1=O
Result: active

---

Test system: K562
Experiment: NCI tumour cell line growth inhibition, 48 h
The source made the active and inactive calls. No stated cut-off is given here; in the data, active = GI50 up to about 1.1 µM and inactive = higher.
Here, each record is paired with measured GI50 data.

Example entries and their recorded answers appear below.
{"columns": ["COMPOUND", "GI50"],
 "data": [
  ["O=C(Nc1ccn(C2CCC(COC(c3ccccc3)(c3ccccc3)c3ccccc3)O2)c(=O)n1)c1ccccc1 (stereo not drawn)", "2.86 µM (inactive)"],
  ["C=C1CC(CCCl)(c2ccccc2)OC1=O (stereo not drawn)", "33.3 µM (inactive)"],
  ["O=C(O)C1CC(c2ccc(F)cc2)=Nc2ccc(F)cc2S1 (stereo not drawn)", "> 100 µM (inactive)"]
]}

Problem: Query (compound): Cc1nc(N)nc(S)c1CCCNc1ccccc1 ; field requested: GI50
Result: 2.36 µM (inactive)

Problem: Param item: CC(=O)ON1C(=O)c2cccc3cccc(c23)C1=O
Result: 20.1 µM (inactive)

Problem: Param item: OCC1CCCC(n2cnc3c(S)ncnc32)O1 (stereo not drawn)
Result: > 100 µM (inactive)

Problem: Param item: Cc1c(N2CCCC2)cc2c(c1NC(=O)c1ccccc1Cl)C(C)(C)CC2(C)C
Result: 35 µM (inactive)

Problem: Param item: N#CC(Cl)CS(=O)(=O)c1ccccc1 (stereo not drawn)
Result: 1.97 µM (inactive)

Problem: Param item: CCN(CC)C(=O)N1CCN(C=S)CC1
Result: > 100 µM (inactive)

Problem: Param item: N#CC(C#N)=C(N)/C(C#N)=C\c1ccnc2ccccc12
Result: 4.24 µM (inactive)

Problem: Param item: O=C1OC(c2ccc(O)c(F)c2)(c2ccc(O)c(F)c2)c2cccc3cccc1c23
Result: 14.8 µM (inactive)

Problem: Param item: CCOC(=O)/C=C(/C(=O)OCC)n1cc(C)c(=O)[nH]c1=O
Result: 1.9 µM (inactive)

Problem: Param item: CCCCCCCCCCSS(=O)(=O)c1ccc(C)cc1
Result: 12.1 µM (inactive)

---

System: UACC-62
Assay: NCI tumour cell line growth inhibition, 48 h
Calls of active or inactive are those of the source. Rule as the data show it: active = GI50 up to about 1.1 µM and inactive = higher.
Permitted responses: true (1) = active, false (0) = inactive

{"columns": ["MOLECULE", "CATEGORY LABEL"],
 "data": [
  ["Cc1cc2c(C)nn(Cc3ccc(Cl)cc3)c2c(C#N)c1C", "false (0)"],
  ["CCCCCCCCCCSS(=O)(=O)c1ccc(C)cc1", "false (0)"],
  ["CCOC(=O)C(C(=O)OCC)C1C=CCC2c3ccccc3COCC21 (configuration not stated)", "false (0)"],
  ["CCC(=N\\NC(N)=S)/C(C)=N/O", "false (0)"],
  ["COc1cccc2c1C(=O)c1ccc3cc(CO)cc(O)c3c1C2=O", "true (1)"],
  ["OCCNCO", "false (0)"]
]}

Pending molecule:
Problem: Could you please tell me the result logged for O=C(Nc1ccc2nc(-c3ccccc3)cn2c1)Oc1ccccc1 in this assay?
Result: false (0)

---

Test system: DU-145
Test: NCI tumour cell line growth inhibition, 48 h
Active and inactive are the calls of the source. Cut-off read from the data, not from the text of the source: active = GI50 up to about 1.1 µM and inactive = higher.
Here, each record is paired with measured GI50 data.

Example entries and their recorded answers appear below.
{"columns": ["MOLECULE", "RECORDED VALUE"],
 "data": [
  ["CC(C)CC(NC(=O)C(CSc1ccc([N+](=O)[O-])cc1)Cc1ccccc1)C(=O)Nc1ccccc1 (configuration not stated)", "89.3 µM (inactive)"],
  ["c1ccc2c(c1)nc1n2C2CCC(C2)N1 (configuration not stated)", "> 10 µM (inactive)"],
  ["CC(C)(C)[Si](C)(C)OCC1OC(n2cnc3c(N)ncnc32)C(O)C1O (configuration not stated)", "> 100 µM (inactive)"],
  ["O=C(O)C(Oc1nc(S)nc(S)n1)(c1ccc(Cl)cc1)c1ccc(Cl)cc1", "> 100 µM (inactive)"]
]}

Problem: Query (molecule): N#CC(Cl)CS(=O)(=O)c1ccccc1 (configuration not stated) ; field requested: GI50
Result: 17.5 µM (inactive)

Problem: Param item: O=C1C=CC2(O[C@H](c3ccccc3)[C@@H](c3ccccc3)O2)C(SC(=O)c2ccccc2)C1 (some centres not stated)
Result: 3.34 µM (inactive)

Problem: Param item: CCOC(=O)C1CCC(=O)N1C(=O)c1ccc(Cl)cc1 (configuration not stated)
Result: > 100 µM (inactive)

Problem: Param item: Cc1ccc(S(=O)(=O)NC(=O)C2=C3SCCN3C(=O)N(S(=O)(=O)c3ccc(C)cc3)C2c2ccccc2)cc1 (configuration not stated)
Result: > 100 µM (inactive)

Problem: Param item: CNc1ncnc2c1nc(NC1CCCC1)n2C1OC(CO)C(O)C1O (configuration not stated)
Result: > 100 µM (inactive)

Problem: Param item: COC(=O)[C@H]1ON2O[C@@H](O[C@H]3CCCC[C@@H]3C(C)(C)c3ccccc3)C[C@@H]3CC[C@H]1[C@@]32C
Result: > 100 µM (inactive)

---

System: MCF7
Test: NCI tumour cell line growth inhibition, 48 h
Active and inactive are the calls of the source. No stated cut-off is given here; in the data, active = GI50 up to about 1.1 µM and inactive = higher.
Permitted responses: t for active, f for inactive

Solved cases (3 shown):
{"columns": ["MOLECULE", "CATEGORY LABEL"],
 "data": [
  ["Cc1ccc(S(=O)(=O)NC(=O)C2=C3SCCN3C(=O)N(S(=O)(=O)c3ccc(C)cc3)C2c2ccccc2)cc1 (centres undefined)", "f"],
  ["O=C(O)CN1C(=O)C(Cc2ccc(O)cc2)N=C(c2cccc(O)c2)c2ccccc21 (centres undefined)", "f"],
  ["C=C1C(=O)OC2CC(C)C(/C=C/C(C)=O)=CCC12 (centres undefined)", "f"]
]}

Problem: Could you please tell me the result logged for Clc1ccc(Nc2nnc(CNc3ccc(-c4nnc(Nc5ccc(Cl)cc5)s4)cc3)s2)cc1 in this assay?
Result: f

---

Test system: NCI/ADR-RES
Assay: NCI tumour cell line growth inhibition, 48 h
Active and inactive are the calls of the source. Rule as the data show it: active = GI50 up to about 1.1 µM and inactive = higher.
Permitted responses: active, inactive

Solved cases (5 shown):
{"columns": ["MOLECULE", "ASSAY TARGET", "CATEGORY LABEL"],
 "data": [
  ["C=C1CC(CN2CCC(=O)NC2=O)(c2ccccc2)OC1=O (stereo not drawn)", "NCI/ADR-RES", "inactive"],
  ["Cc1cc(S(=O)(=O)N=C2NCC(C)(C)CN2)c(S)cc1Cl", "NCI/ADR-RES", "inactive"],
  ["COC(=O)/C=C(/C)n1nc2ccccc2n1", "NCI/ADR-RES", "inactive"],
  ["COC(=O)c1ccc(/C=C2\\Oc3ccccc3C2=O)cc1", "NCI/ADR-RES", "inactive"],
  ["O=C(N/C(=C/c1ccc(Cl)cc1Cl)c1nc2ccccc2s1)c1ccccc1", "NCI/ADR-RES", "inactive"]
]}

Problem: Could you please tell me the result logged for N#Cc1c(SCc2ccccc2)nc(-c2ccccc2)[nH]c1=S in this assay?
Result: inactive

Problem: Param item: COc1c(C)c(C/C=C(\C)CCCC(C)CCCC(C)CCCC(C)C)c(OC)c2ccccc12 (stereo not drawn)
Result: inactive

Problem: Param item: O=C(O)c1cc2ccccc2c(/N=N/c2ccc(S(=O)(=O)Nc3ccccn3)cc2)c1O
Result: inactive

Problem: Param item: CCOC(=O)C1=C(Nc2cccc(OC)c2)OCC1=O
Result: inactive

Problem: Param item: CC(=O)c1ccc(Nc2nc3ccccc3c3occc23)cc1
Result: inactive

Problem: Param item: C=CC(C1=CC(=O)C(OC)=CC1=O)c1ccccc1 (stereo not drawn) [4-METHOXYDALBERGIONE]
Result: inactive

Problem: Param item: C[C@@H]1CCC[C@]2(C)O[C@H]2CC[C@@](C)(O)[C@@H]2CC3=C(CO)C(=O)O[C@H]3[C@H]1O2
Result: inactive

Problem: Param item: CN(C)C(=S)SSC(=S)N(C)C [THIRAM]
Result: inactive
